Source of measurements: the supplement of paper PMC9170038

Test system: MS2 coat protein
Assay: apparent KD of MS2 coat protein; designed switch direction (-1 OFF switch, 1 ON switch): 1; higher = weaker reporter binding
Conditions: Eterna round: R95; input ligand: FMN 200 uM
Value kind: apparent KD of MS2 coat protein

# Entry sequence, Result value
rows = [
    ("UCUUGGUUUUUGCUCGUUUUUUGUGUUGAACAUGAGGAUCACCCAUGUAUUGUACGGUCCGAUUUAGUAGUGGUCCG [JMF 18] (puzzle: Sensor for hsa-mir-208a)", "26 nM"),
    ("AACCCACAUGAGGAUCACCCAUGUGUCUGAGGCACAGGAUAUCGACAGGCAAGACACCUGCGAGAAGGGUGACCUC [Same State 1 - Mod of Vinnie Diatater v.1] (puzzle: Same State 1)", "18.4 nM"),
    ("CGUCCGGCCUGUGCUGGCCGGAAGCUUGUACAUGAGGAUCACCCAUGUUCAUGUGCAGGCUUUUUGCUCGUCUUGUG [salish99_mir208a_009] (puzzle: Sensor for hsa-mir-208a)", "26.4 nM"),
    ("AACAAUCUAUCUGAGGAUAUCAUGAAAUAAACAUGAGGAUCACCCAUGUGCAGGAAUACUGCAUAUGAGAAGGCAGAUAGAUUGA [salish99_ss2_r3_042] (puzzle: Same State 2)", "86 nM"),
    ("AGUCCAGCGAAAGCUGGACAAAGGCAUGUACAUGAGGAUCACCCAUGUUCAUGUACAAGCUUUUUGCUCGUCUUAAA [JL mod - D95 - 3] (puzzle: Sensor for hsa-mir-208a)", "147 nM"),
]

----------
System: MS2 coat protein
Assay: apparent KD of MS2 coat protein; designed switch direction (-1 OFF switch, 1 ON switch): -1; higher = weaker reporter binding
Settings: input ligand: none
Give 1 when the value for apparent KD of MS2 coat protein is at least 0.09 µM. Give 0 when it is less.

# Entry sequence, Label value
measured = [
    ("UGUCAGAUGGUAGGAUAUCCAUAUCGAGUGUCCCUUUCCUAACAUGAGGAUCACCCAUGUCGGUGGGAGAAGGGCCGUAUGGUG [salish99_ExNG02_R04_034] (Eterna round: R96, puzzle: Exclusion NG 2)", 0),
    ("CUCGUGCAGCAAAGCUGUACGAGUACAUGAGGAUCACCCAUGUAGGAUAUGGUACGCUUUGCGUGCUAGAAGGACGUGUGUAUG [Mat - Exclusion NG 3 - Mod of JL - D90] (Eterna round: R96, puzzle: Exclusion NG 3)", 0),
    ("CAUUAUGUUGAGGAUAUGCGCCGGCUCGCUGACGCAGAAGGCGACACAUGAGGAUCACCCAUGUCAGUUCGCGA [salish99_ex6_r004_420] (Eterna round: R97, puzzle: Exclusion 6)", 0),
    ("CUGUGUAGACAGGAUAUGCUGUACAAAAGUACAGCAGAAGGGUCUACAUGAGGAUCACCCAUGUAUACUUCAUG [)mei Ex6 B24] (Eterna round: R97, puzzle: Exclusion 6)", 1),
    ("CUCCGCGGAGGAUAUGCAGCCUUCGACAUGAGGAUCACCCAUGUACAAGAUCCCUUGUCGGCAGAAGGCCGGGAGA [Usena] (Eterna round: R97, puzzle: Exclusion 5)", 1),
    ("UUUUAGUCAGGAUAUACAUGAGGAUCACCCAUGUAAAAUUUUAAUUUAAUUUUAAGGUGUAGAAGGGACCACCC [Ex3 #14] (Eterna round: R97, puzzle: Exclusion 3)", 0),
    ("GUGAUCUAUCAUGGAAUAAACAUGAGGAUCACCCAUGUAGACAAGUUUUUUGCUCGUCUUAUAAUAAGAUAGAUCAC [Antenna 14 - Jieux - Sensor, turn-off variant 1] (Eterna round: R97, puzzle: Sensor, turn-off variant 1)", 0),
    ("ACUCGACAUGAGGAUCACCCAUGUGAGGAUAUGGCCUGUAUGGCGUGAGCUGGCUCAAUAAGAAGGCGCGUGGG [salish99_ex1_r4_051] (Eterna round: R97, puzzle: Exclusion 1)", 1),
]
